assay: Pharmacokinetics after oral administration, Balb/c mice; type: in vivo; details: mouse, plasma, 10 mg/kg
QUANTITY_KIND: Cmax

> print(dat)
                                     smiles  quantity.kind         result
1  Cn1cc(-c2ccc(-c3ccc4ncc5c(c4c3)n([C@H]3CC[C@@H](O)CC3)c(=O)n5C)cn2)cn1           Cmax  5 to 10 µg/mL

###

test: Solubility test in common aqueous vehicles; assay type: physicochemical; conditions: aqueous buffer; water, 25° C., pH = 3
Each entry below carries its recorded solubility.
QUANTITY_KIND: solubility

> print(dat)
                                   compound        result
1  Cn1cc(-c2ccc(-c3ccc4ncc5c(c4c3)n(C3CCCN(C(=O)CO)C3)c(=O)n5C)cn2)cn1 (stereo not shown)  > 1000 µg/mL
2  Cn1cc(-c2ccc(-c3ccc4ncc5c(c4c3)n([C@H]3CC[C@@H](O)CC3)c(=O)n5C)cn2)cn1  > 5000 µg/mL
3  Cn1cc(-c2ccc(-c3ccc4ncc5c(c4c3)n([C@@H]3CCCN(S(C)(=O)=O)C3)c(=O)n5C)cn2)cn1  > 5000 µg/mL
4  CCS(=O)(=O)N1CCC[C@@H](n2c(=O)n(C)c3cnc4ccc(-c5ccc(-c6cnn(C)c6)nc5)cc4c32)C1  > 1000 µg/mL
